target: HLA-A*26:01; test: IEDB peptide-MHC binding, purified MHC/direct/fluorescence; filed as Kd, often an IC50 or EC50 that approximates it; bounds were set here for any values at or beyond the usual limits of such assays; conditions: source organism: Influenza A virus(A/swine/Henan/5/2004(H9N2))
pKd: −log10 of the molar value.
Value Kind: pKd

{"Seq": "GMQIRGFVY", "Measured Target": "HLA-A*26:01", "Value Kind": "pKd", "Test Value": "≤ 4.70"}

###

molecular target: HLA-A*69:01; test: IEDB peptide-MHC binding, purified MHC/competitive/fluorescence; filed as Kd, often an IC50 or EC50 that approximates it; bounds were set here for any values at or beyond the usual limits of such assays; details: source organism: Encephalitozoon cuniculi GB-M1
# Kd per entry
Value Kind: Kd (nM)

{"Seq": "GVYGGLCLA", "Measured Target": "HLA-A*69:01", "Value Kind": "Kd", "Modifier Sign": "=", "Test Value": 423}
{"Seq": "EAYCALLCK", "Measured Target": "HLA-A*69:01", "Value Kind": "Kd", "Modifier Sign": "≥", "Test Value": 20000}

###

biological target: HLA-B*57:01; experiment: IEDB peptide-MHC binding, purified MHC/direct/fluorescence; filed as Kd, often an IC50 or EC50 that approximates it; bounds were set here for any values at or beyond the usual limits of such assays; conditions: source organism: Entamoeba histolytica HM-1:IMSS

{"Seq": "RQRHYFDSA", "Measured Target": "HLA-B*57:01", "Kd": "≥ 20 µM"}

###

target: HLA-B*15:01; experiment: IEDB peptide-MHC binding, purified MHC/direct/fluorescence; filed as Kd, often an IC50 or EC50 that approximates it; bounds were set here for any values at or beyond the usual limits of such assays; settings: source organism: Influenza A virus (A/Hong Kong/213/2003(H5N1))

{"Seq": "CFMYSDFHF", "Kd": "≥ 20 µM"}

###

target: HLA-A*02:01; experiment: IEDB peptide-MHC binding, purified MHC/competitive/fluorescence; filed as Kd, often an IC50 or EC50 that approximates it; bounds were set here for any values at or beyond the usual limits of such assays; conditions: source organism: Vibrio vulnificus YJ016
pKd: −log10 of the molar value.
Value Kind: pKd

{"Seq": "VTFGARASF", "Test Value": "≤ 4.70"}
{"Seq": "TSCAPMMQK", "Test Value": "≤ 4.70"}

###

target: HLA-A*30:01; assay: IEDB peptide-MHC binding, purified MHC/competitive/fluorescence; filed as Kd, often an IC50 or EC50 that approximates it; bounds were set here for any values at or beyond the usual limits of such assays; details: source organism: Entamoeba histolytica HM-1:IMSS
pKd: −log10 of the molar value.

{"Seq": "EVIRATYPS", "pKd": "≤ 5.30"}

###

target: HLA-B*40:01; assay: IEDB peptide-MHC binding, purified MHC/competitive/radioactivity; filed as Kd, often an IC50 or EC50 that approximates it; bounds were set here for any values at or beyond the usual limits of such assays; settings: source organism: Lymphocytic choriomeningitis virus (strain WE)
pKd: −log10 of the molar value.
Value Kind: pKd

{"Seq": "LDVLCPSSL", "Value Kind": "pKd", "Test Value": "≤ 4.63"}
